- Test system: HT29 colon
- assay summary: NCI tumour cell line growth inhibition, 48 h; in the data active = GI50 below about 0.43 µM; inactive = the rest
Choose the fitting class; nothing outside active, inactive is accepted.

Solved entries (count: 9):
compound	measured target	cat
CCC[CH2][Sn]([CH2]CCC)([CH2]CCC)[O]C(=O)C(OC)c1ccccc1 (stereo not given)	HT29 colon	active
O=C1Nc2ccccc2/C1=C/c1cn(CC(O)Cn2cc(/C=C3\C(=O)Nc4ccccc43)c3ccccc32)c2ccccc12 (stereo not given)	HT29 colon	inactive
CC(=O)O[C@H](C[C@H](C(C)C)N(C)C(=O)[C@@H](NC(=O)[C@H]1CCCCN1C)C(C)C)c1cccc(C(=O)N[C@@H](Cc2ccccc2)C[C@H](C)C(=O)O)n1	HT29 colon	active
COc1ccc2c(c1)O/C(=C\c1cccc(OCC(=O)Nc3nc(C)c(C)s3)c1)C2=O	HT29 colon	inactive
COc1ccc(-c2nc(N)c(C#N)c3c2CCOc2c-3ccc3ccccc23)cc1	HT29 colon	inactive
COc1cc(CN(c2ccc(C)cc2)C2OC(=O)c3ccccc32)cc(OC)c1OC (stereo not given)	HT29 colon	active
CN1CCN(CCCOc2cccc3nc(Nc4ccc(F)c(F)c4)ccc23)CC1	HT29 colon	inactive
COc1ccccc1C1C(C#N)=C(N)Oc2cc(O)ccc21 (stereo not given)	HT29 colon	inactive
Nc1ccc(-c2ccc3ncc4ccc(=O)n(-c5cccc(C(F)(F)F)c5)c4c3c2)cn1	HT29 colon	active

Now, please, on to the next compound.
Prompt: What call does the record list for "O=C(O)Cn1ccc2ccccc21" ?
Response: inactive
